settings: 288.15 K; 101 kPa; Liquid; Falling or rolling sphere viscometry
observedProperty: viscosity (mPa·s)

A. CCCC(=O)OCC [ethyl butanoate]
B. CCCCCCO [hexan-1-ol]
C. CCCCO [butan-1-ol]
Exercise: Ranking criterion: viscosity, increasing numeric value. Items: as listed above. Ranked list of labels, please, in the requested order.
Key: A, C, B
(A: 0.7224 mPa·s, C: 3.365 mPa·s, B: 6.308 mPa·s)

====

assay: xn = mol fraction of the nth substance listed; conditions: 298.15 K; 101 kPa; Liquid; Falling or rolling sphere viscometry; x1 = 0.5
observedProperty: viscosity (mPa·s)

| compound | readoutUnits | viscosity |
| --- | --- | --- |
| CCCC(=O)OCC [ethyl butanoate] + CC(C)CCO | mPa·s | 0.9993 |
| CCCC(=O)OCC [ethyl butanoate] + CCCCO | mPa·s | 0.8734 |
| CCCC(=O)OCC [ethyl butanoate] + CC(C)CO | mPa·s | 0.8977 |
| CCCC(=O)OCC [ethyl butanoate] + CCCCCCO | mPa·s | 1.166 |

====

assay: xn = mol fraction of the nth substance listed; conditions: 288.15 K; 101 kPa; Liquid; Vibrating tube method; x1 = 0.5
observedProperty: mass density (kg/m3)

| compound | mass density / kg/m3 |
| --- | --- |
| CCCC(=O)OCC [ethyl butanoate] + CC(C)CCO | 850.77 |
| CCCC(=O)OCC [ethyl butanoate] + CC(C)CO | 850.43 |
| CCCC(=O)OCC [ethyl butanoate] + CCCCCCO | 852.62 |
| CCCC(=O)OCC [ethyl butanoate] + CCCCO | 854.06 |

====

details: 303.15 K; 101 kPa; Liquid; Falling or rolling sphere viscometry
observedProperty: viscosity (mPa·s)

a. CCCO
b. CC(C)CO
Exercise: Between a and b , whose recorded viscosity is greater? Write down the label of the entry you select.
Key: b
(b: 2.923 mPa·s, a: 1.727 mPa·s)

1. CC(C)CCO
2. CCCC(=O)OCC [ethyl butanoate]
Exercise: Between 1 and 2 , whose recorded viscosity is greater? Write down the label of the entry you select.
Key: 1

P. CCCCCCO
Q. CCCCO
Exercise: Between P and Q , whose recorded viscosity is greater? Write down the label of the entry you select.
Key: P
(P: 3.896 mPa·s, Q: 2.257 mPa·s)

====

details: 313.15 K; 101 kPa; Liquid; Falling or rolling sphere viscometry
observedProperty: viscosity (mPa·s)

| substanceSmiles | viscosity, mPa·s |
| --- | --- |
| CC(C)CCO | 2.375 |
| CCCO | 1.378 |
| CC(C)CO | 2.161 |

P. CCCCO
Q. CCCCCCO
Exercise: Which gives the smaller viscosity number: P or Q ? Write down the label of the entry you select.
Key: P

====

conditions: 323.15 K; 101 kPa; Liquid; Vibrating tube method
observedProperty: mass density (kg/m3)

| compound | measured |
| --- | --- |
| CC(C)CO | 778.14 |
| CC(C)CCO | 785.79 |
| CCCCCCO | 796.85 |
| CCCC(=O)OCC [ethyl butanoate] | 847 |
| CCCCO | 786.29 |
| CCCO | 779.14 |

From: the NIST ThermoML archive (doi:10.1021/je5005752)
